// reported Dmax for each item listed
# systemName: Androgen Receptor (Homo sapiens)
# Construct: endogenous in cells; host or cells: VCaP cells
# testMethodNotes: Androgen Receptor ELISA assay (PathScan AR ELISA) in VCaP cells: AR degradation, Dmax and DC50
# Format: cell-based
# experimentalConditions: VCaP, read-out: VCaP Dmax (%)

{"smi": "Cc1ncsc1-c1ccc([C@H](C)NC(=O)[C@@H]2C[C@@H](O)CN2C(=O)[C@@H](NC(=O)CN2CCN(CCCc3ccc(C(=O)N[C@H]4C(C)(C)[C@H](Oc5ccc(C#N)c(Cl)c5)C4(C)C)cc3)[C@@H](CO)C2)C(C)(C)C)cc1", "Dmax": "> 71%"}
{"smi": "Cc1ncsc1-c1ccc([C@H](C)NC(=O)[C@@H]2C[C@@H](O)CN2C(=O)[C@@H](NC(=O)CN2CCOCCN(CCOc3ccc(N4C(=S)N(c5ccc(C#N)c(C(F)(F)F)c5)C(=O)C4(C)C)cc3)CCOCC2)C(C)(C)C)cc1", "Dmax": "< 25%"}

----------
// reported Dmax for each item listed
# systemName: Androgen Receptor (Homo sapiens, UniProt P10275)
# Construct: endogenous in cells; host or cells: VCaP cells
# Sequence (P10275 whole entry): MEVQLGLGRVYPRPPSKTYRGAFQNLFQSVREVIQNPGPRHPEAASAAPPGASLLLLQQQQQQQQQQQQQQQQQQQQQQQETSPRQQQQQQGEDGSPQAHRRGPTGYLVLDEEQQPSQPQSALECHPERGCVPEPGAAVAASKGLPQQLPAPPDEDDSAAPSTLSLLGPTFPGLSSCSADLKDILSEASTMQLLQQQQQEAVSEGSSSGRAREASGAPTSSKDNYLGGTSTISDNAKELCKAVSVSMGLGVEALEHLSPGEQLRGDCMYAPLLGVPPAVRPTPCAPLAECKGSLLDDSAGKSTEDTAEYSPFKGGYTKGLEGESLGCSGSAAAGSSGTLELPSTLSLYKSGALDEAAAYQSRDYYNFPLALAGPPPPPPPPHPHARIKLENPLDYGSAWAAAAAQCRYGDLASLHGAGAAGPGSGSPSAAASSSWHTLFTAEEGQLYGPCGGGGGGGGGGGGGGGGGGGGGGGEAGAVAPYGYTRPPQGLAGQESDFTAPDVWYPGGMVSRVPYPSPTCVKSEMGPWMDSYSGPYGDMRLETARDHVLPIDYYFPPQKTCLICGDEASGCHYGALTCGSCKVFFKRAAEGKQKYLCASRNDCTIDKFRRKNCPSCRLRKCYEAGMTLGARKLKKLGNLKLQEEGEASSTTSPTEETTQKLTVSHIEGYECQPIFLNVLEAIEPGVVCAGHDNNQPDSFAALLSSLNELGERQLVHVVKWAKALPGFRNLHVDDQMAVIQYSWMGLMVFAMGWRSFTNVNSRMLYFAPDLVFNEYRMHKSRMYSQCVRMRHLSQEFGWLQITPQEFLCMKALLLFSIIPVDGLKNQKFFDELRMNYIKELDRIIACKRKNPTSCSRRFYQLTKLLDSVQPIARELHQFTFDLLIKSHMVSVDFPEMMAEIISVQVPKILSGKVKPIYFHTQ
# testMethodNotes: Androgen Receptor ELISA assay (PathScan AR ELISA) in VCaP cells: AR degradation, Dmax and DC50
# Format: cell-based
# experimentalConditions: VCaP, read-out: VCaP Dmax (%)

{"smi": "Cc1ncsc1-c1ccc([C@H](C)NC(=O)[C@@H]2C[C@@H](O)CN2C(=O)[C@@H](NC(=O)CN2CCN(CC3(Cc4ccc(C(=O)N[C@H]5C(C)(C)[C@H](Oc6ccc(C#N)c(C(F)(F)F)c6)C5(C)C)cc4)COC3)CC2)C(C)(C)C)cc1", "Dmax": "51 to 70%"}
{"smi": "Cc1ncsc1-c1ccc([C@H](CO)NC(=O)[C@@H]2C[C@@H](O)CN2C(=O)[C@@H](NC(=O)CN2CCN(CC3CCN(c4ccc(C(=O)N[C@H]5C(C)(C)[C@H](Oc6ccc(C#N)c(Cl)c6)C5(C)C)cn4)CC3)CC2)C(C)(C)C)cc1", "Dmax": "> 71%"}

----------
// reported Dmax for each item listed
# systemName: Androgen Receptor (Homo sapiens)
# Construct: endogenous in cells; host or cells: VCaP cells
# testMethodNotes: Androgen Receptor ELISA assay (PathScan AR ELISA) in VCaP cells: AR degradation, Dmax and DC50
# Type: cell-based
# experimentalConditions: VCaP, read-out: VCaP Dmax (%)

{"compound": "Cc1ncsc1-c1ccc(CNC(=O)[C@@H]2C[C@@H](O)CN2C(=O)[C@@H](NC(=O)COCCOc2cccc(CCCOc3ccc(N4C(=S)N(c5ccc(C#N)c(C(F)(F)F)c5)C(=O)C4(C)C)cc3)c2)C(C)(C)C)cc1", "systemName": "Androgen Receptor (Homo sapiens)", "Dmax": "26 to 50%"}
{"compound": "Cc1ncsc1-c1ccc(CNC(=O)[C@@H]2C[C@@H](O)CN2C(=O)[C@@H](NC(=O)COC/C=C\\COCCCCOc2ccc(N3C(=S)N(c4ccc(C#N)c(C(F)(F)F)c4)C(=O)C3(C)C)cc2)C(C)(C)C)cc1", "systemName": "Androgen Receptor (Homo sapiens)", "Dmax": "26 to 50%"}
{"compound": "Cc1ncoc1C12CC(CNC(=O)[C@@H]3C[C@@H](O)CN3C(=O)C(NC(=O)COCCCOCCCOc3ccc(N4C(=O)N(c5ccc(C#N)c(C(F)(F)F)c5)C(=O)C4(C)C)cc3)C(C)(C)C)(C1)C2 (stereo partly shown)", "systemName": "Androgen Receptor (Homo sapiens)", "Dmax": "< 25%"}
{"compound": "Cc1ncsc1-c1ccc(CNC(=O)[C@@H]2C[C@@H](O)CN2C(=O)[C@@H](NC(=O)COc2cccc(Oc3ccc(-c4ccc(N5C(=S)N(c6ccc(C#N)c(C(F)(F)F)c6)C(=O)C5(C)C)cc4)cc3)c2)C(C)(C)C)cc1", "systemName": "Androgen Receptor (Homo sapiens)", "Dmax": "51 to 70%"}

----------
// reported DC50 for each item listed
# systemName: Androgen Receptor (Homo sapiens, UniProt P10275+P40337, T878A)
# Construct: Compounds have been evaluated in this assay in LNCaP and/or VCaP cells utilizing similar protocols; endogenous in cells; host or cells: LNCaP cells
# Sequence (P10275 whole entry T878A): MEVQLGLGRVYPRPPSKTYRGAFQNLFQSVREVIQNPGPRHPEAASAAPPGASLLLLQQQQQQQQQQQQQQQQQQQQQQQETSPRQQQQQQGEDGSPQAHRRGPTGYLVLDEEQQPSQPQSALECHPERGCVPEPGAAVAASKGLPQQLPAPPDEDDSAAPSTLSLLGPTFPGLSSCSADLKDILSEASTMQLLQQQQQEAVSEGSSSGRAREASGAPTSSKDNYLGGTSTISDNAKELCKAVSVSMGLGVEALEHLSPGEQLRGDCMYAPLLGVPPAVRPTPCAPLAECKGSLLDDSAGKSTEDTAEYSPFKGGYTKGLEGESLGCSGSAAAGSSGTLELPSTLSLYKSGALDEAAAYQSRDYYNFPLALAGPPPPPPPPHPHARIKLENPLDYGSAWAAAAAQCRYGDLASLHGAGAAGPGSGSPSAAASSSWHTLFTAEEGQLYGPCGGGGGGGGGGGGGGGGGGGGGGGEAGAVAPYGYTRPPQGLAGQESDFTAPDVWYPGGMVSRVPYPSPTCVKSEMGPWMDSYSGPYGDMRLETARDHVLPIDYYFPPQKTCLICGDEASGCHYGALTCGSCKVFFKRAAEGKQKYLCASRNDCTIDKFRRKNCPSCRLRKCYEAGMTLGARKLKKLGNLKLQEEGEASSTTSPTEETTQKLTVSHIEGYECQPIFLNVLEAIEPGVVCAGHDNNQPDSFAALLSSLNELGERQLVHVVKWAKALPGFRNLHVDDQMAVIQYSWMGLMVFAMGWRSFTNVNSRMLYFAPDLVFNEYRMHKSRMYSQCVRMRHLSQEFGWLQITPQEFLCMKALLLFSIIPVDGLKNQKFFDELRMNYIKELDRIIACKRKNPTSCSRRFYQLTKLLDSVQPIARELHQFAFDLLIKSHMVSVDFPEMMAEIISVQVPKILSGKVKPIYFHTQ
# Sequence (P40337 whole entry): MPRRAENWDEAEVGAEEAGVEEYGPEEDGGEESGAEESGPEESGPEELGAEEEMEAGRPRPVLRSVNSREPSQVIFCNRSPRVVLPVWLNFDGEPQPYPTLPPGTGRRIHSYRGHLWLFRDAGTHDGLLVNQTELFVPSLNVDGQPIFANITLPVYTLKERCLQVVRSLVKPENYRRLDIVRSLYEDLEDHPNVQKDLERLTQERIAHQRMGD
# Sequence (Q15369 whole entry partner): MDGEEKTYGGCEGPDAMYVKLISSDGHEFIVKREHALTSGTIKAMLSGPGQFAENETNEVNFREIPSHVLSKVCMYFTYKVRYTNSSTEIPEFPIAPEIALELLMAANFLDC
# Sequence (Q15370 whole entry partner): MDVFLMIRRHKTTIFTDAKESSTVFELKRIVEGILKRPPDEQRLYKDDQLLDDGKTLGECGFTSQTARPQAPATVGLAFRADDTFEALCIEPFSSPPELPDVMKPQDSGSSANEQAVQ
# testMethodNotes: Androgen Receptor ELISA assay (PathScan AR ELISA) in LNCaP cells: AR degradation, Dmax and DC50
# Format: cell-based
# experimentalConditions: concentration that caused 50% Androgen Receptor degradation
parameterMeasured: DC50

{"molecule": "Cc1ncsc1-c1ccc(CNC(=O)[C@@H]2C[C@@H](O)CN2C(=O)[C@@H](NC(=O)c2ccccc2OCCCCOc2ccc(N3C(=S)N(c4ccc(C#N)c(C(F)(F)F)c4)C(=O)C3(C)C)cc2)C(C)(C)C)cc1 [Example 276]", "readoutValue": "> 501 nM"}
{"molecule": "Cc1ncsc1-c1ccc(CNC(=O)[C@@H]2C[C@@H](O)CN2C(=O)[C@@H](NC(=O)COCCCCOC2CCN(C(=O)c3ccc(N4C(=S)N(c5ccc(C#N)c(C(F)(F)F)c5)C(=O)C4(C)C)cc3)CC2)C(C)(C)C)cc1 [Example 293]", "readoutValue": "51 to 500 nM"}

----------
# systemName: Androgen Receptor (Homo sapiens, UniProt P10275)
# Construct: endogenous in cells; host or cells: VCaP cells
# testMethodNotes: Androgen Receptor ELISA assay (PathScan AR ELISA) in VCaP cells: AR degradation, Dmax and DC50
# Format: cell-based
# experimentalConditions: VCaP, highest percentage of Androgen Receptor degradation observed, VCaP cells (Table 32); read-out: VCaP Dmax (%)
# Method: 1. Androgen Receptor ELISA Assay. The protocols used with VCaP cells are described below. The androgen receptor ELISA assay was performed using PathScan AR ELISA (Cell Signaling Catalog #12850) according to the following assay steps: […]

{"compound": "Cc1ncoc1-c1ccc([C@H](C)NC(=O)[C@@H]2C[C@@H](O)CN2C(=O)[C@@H](NC(=O)COCCCCOc2ccc(C(=O)N[C@H]3C(C)(C)[C@H](Oc4ccc(C#N)c(Cl)c4)C3(C)C)cc2)C(C)(C)C)cc1 [Example 168]", "Dmax": "> 71%"}
{"compound": "CC(C)(C)[C@H](NC(=O)COCCCCCOc1ccc(C(=O)N[C@H]2C(C)(C)[C@H](Oc3ccc(C#N)c(Cl)c3)C2(C)C)cc1)C(=O)N1C[C@H](O)C[C@H]1C(=O)NCc1ccc(-c2cnco2)cc1 [Example 153]", "Dmax": "> 71%"}
{"compound": "Cc1ncoc1-c1ccc(CNC(=O)[C@@H]2C[C@@H](O)CN2C(=O)[C@@H](NC(=O)COCCCCOc2ccc(C(=O)N[C@H]3C(C)(C)[C@H](Oc4ccc(C#N)c(C(F)(F)F)c4)C3(C)C)cc2)C(C)(C)C)cc1 [Example 166]", "Dmax": "51 to 70%"}
{"compound": "Cc1ncsc1-c1ccc(CNC(=O)[C@@H]2C[C@@H](O)CN2C(=O)[C@@H](NC(=O)COCCCCNc2ccc(C(=O)N[C@H]3C(C)(C)[C@H](Oc4ccc(C#N)c(Cl)c4)C3(C)C)cc2)C(C)(C)C)cc1 [Example 175]", "Dmax": "51 to 70%"}

----------
# systemName: Androgen Receptor (Homo sapiens, UniProt P10275)
# Construct: endogenous in cells; host or cells: VCaP cells
# testMethodNotes: Androgen Receptor ELISA assay (PathScan AR ELISA) in VCaP cells: AR degradation, Dmax and DC50
# Format: cell-based
# experimentalConditions: VCaP cells; Table 36; read-out: VCaP DC50
# Experimental: 1. Androgen Receptor ELISA Assay. The protocols used with VCaP cells are described below. The androgen receptor ELISA assay was performed using PathScan AR ELISA (Cell Signaling Catalog #12850) according to the following assay steps: […]
parameterMeasured: DC50

{"smi": "Cc1ncsc1-c1ccc([C@H](C)NC(=O)[C@@H]2C[C@@H](O)CN2C(=O)[C@@H](C(C)C)n2cc(-c3ccnc(N4CC[C@@H](Nc5ccc(C(=O)N[C@H]6C(C)(C)[C@H](Oc7ccc(C#N)c(Cl)c7)C6(C)C)cc5)C4)c3)cn2)cc1", "systemName": "Androgen Receptor (Homo sapiens, UniProt P10275)", "readoutValue": "> 501 nM"}
{"smi": "Cc1ncsc1-c1ccc([C@H](C)NC(=O)[C@@H]2C[C@@H](O)CN2C(=O)[C@@H](c2cc(OCCN3CCN(c4ccc(C(=O)N[C@H]5C(C)(C)[C@H](Oc6ccc(C#N)c(Cl)c6)C5(C)C)cn4)CC3)no2)C(C)C)cc1", "systemName": "Androgen Receptor (Homo sapiens, UniProt P10275)", "readoutValue": "< 50 nM"}
{"smi": "Cc1ncsc1-c1ccc(CNC(=O)[C@@H]2C[C@@H](O)CN2C(=O)[C@H](C(C)C)N2Cc3ccccc3C2=O)c(N2CCN(CCCc3ccc(C(=O)N[C@H]4C(C)(C)[C@H](Oc5ccc(C#N)c(Cl)c5)C4(C)C)cc3)CC2)c1", "systemName": "Androgen Receptor (Homo sapiens, UniProt P10275)", "readoutValue": "< 50 nM"}
{"smi": "CC(C)[C@@H](C(=O)N1C[C@H](O)C[C@H]1C(=O)NCc1ccc(Cl)cc1)N1Cc2ccc(N3CCN(CCCc4ccc(C(=O)N[C@H]5C(C)(C)[C@H](Oc6ccc(C#N)c(C(F)(F)F)c6)C5(C)C)cc4)CC3)cc2C1=O", "systemName": "Androgen Receptor (Homo sapiens, UniProt P10275)", "readoutValue": "> 501 nM"}
